Provenance of the data: paper PMC7155171

# Tested on: P. berghei liver stage (PbLuc)
# protocolText: P. berghei luciferase liver stage (PbLuc) assay in HepG2-A16-CD81 hepatocytes
# Assay type: cell-based, Plasmodium berghei
# settings: Plasmodium berghei, HepG2-A16-CD81, 48 h, 48 h liver stage, HepG2-A16-CD81; read-out: Pbluc (EEF) IC50
Below, each entry is listed with its recorded pIC50.
As a rule, pIC50 stands for the negative log10 of the concentration, concentration in M.

Some solved cases for reference:
For the molecule COc1ccc2cc(C3CN(C(=O)CCNC(C)=O)CCO3)ccc2c1 (stereo not shown) , what pIC50 is on record?
6.48

For the molecule CCS(=O)(=O)N1CCc2ccc(NC(=O)Nc3cccc(C)c3)cc21 , what pIC50 is on record?
5.44

For the molecule CCS(=O)(=O)N1CCc2ccc(NC(=O)Nc3cccc(SC)c3)cc21 , what pIC50 is on record?
5.86

For the molecule CNC(=O)CCC(=O)N1CCOC(c2ccc3cc(OC)ccc3c2)C1 (stereo not shown) , what pIC50 is on record?
9.02

For the molecule COc1cc(C)c(CN2CCc3nc4ccsc4c(=O)n3CC2)cc1C , what pIC50 is on record?
5.05

For the molecule CCc1c(C)nc(-n2nc(C3CC3)cc2NC(C)=O)[nH]c1=O , what pIC50 is on record?
7.02

For the molecule CC(C)c1cc(=O)[nH]c(-n2nc(C3CC3)cc2N)n1 , what pIC50 is on record?
5.79

For the molecule CCCc1cc(=O)[nH]c(-n2nc(C3CC3)cc2N)n1 , what pIC50 is on record?
5.33

For the molecule CCc1nc(CN2CCCN(c3ncnc4ccsc34)CC2)no1 , what pIC50 is on record?
5.01

For the molecule Cc1cc(NC(=O)C(C)C)n(-c2nc(C)c(C)c(=O)[nH]2)n1 , what pIC50 is on record?
6.86

New cases:
For the molecule Fc1ccc(CN2CCCC(c3cc4ncccc4[nH]3)C2)cc1 (stereo not shown) , what pIC50 is on record?
5.07

For the molecule Cc1[nH]/c(=N\C(=O)c2csc(NC3CCCC3)n2)sc1C , what pIC50 is on record?
6.08

For the molecule CCS(=O)(=O)N1CCc2ccc(NC(=O)Nc3cccc(F)c3)cc21 , what pIC50 is on record?
5.03

For the molecule Cc1cc(C(=O)N2CCN(c3nc4c(C(C)C)cccc4s3)CC2)no1 , what pIC50 is on record?
6.09

For the molecule Cc1cc(C(=O)N2CCN(c3nc4c(C(C)C)cccc4s3)CC2)on1 , what pIC50 is on record?
5.40

For the molecule O=c1c2sccc2nc2n1CCN(Cc1ccccc1C(F)(F)F)CC2 , what pIC50 is on record?
5.17
